# pIC50 values compiled below
TARGET_OR_TEST_SYSTEM: Genome polyprotein (Hepatitis C virus genotype 1a (isolate 1) (HCV), UniProt P26664)
Sequence (P26664 1027-1657 limits assumed): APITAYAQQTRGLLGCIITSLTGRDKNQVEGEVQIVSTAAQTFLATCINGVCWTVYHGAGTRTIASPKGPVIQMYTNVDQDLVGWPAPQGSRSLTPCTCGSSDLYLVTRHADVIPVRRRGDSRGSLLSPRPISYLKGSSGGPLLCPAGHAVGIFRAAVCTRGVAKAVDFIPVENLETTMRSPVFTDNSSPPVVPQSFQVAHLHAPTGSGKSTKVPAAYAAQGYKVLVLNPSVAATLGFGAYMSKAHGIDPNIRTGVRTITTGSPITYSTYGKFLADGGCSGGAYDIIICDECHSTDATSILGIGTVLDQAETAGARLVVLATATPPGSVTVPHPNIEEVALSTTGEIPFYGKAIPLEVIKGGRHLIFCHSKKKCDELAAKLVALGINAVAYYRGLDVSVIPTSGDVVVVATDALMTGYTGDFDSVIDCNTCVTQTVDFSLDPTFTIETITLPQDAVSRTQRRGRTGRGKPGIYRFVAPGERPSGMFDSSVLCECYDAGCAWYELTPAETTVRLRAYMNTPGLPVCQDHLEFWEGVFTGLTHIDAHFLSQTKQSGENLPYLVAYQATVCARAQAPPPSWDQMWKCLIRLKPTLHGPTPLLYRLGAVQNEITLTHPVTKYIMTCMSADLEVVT
ASSAY: Inhibitory concentration against HCV NS3 protease was determined
Numbered stars: 1 amine (or outer) side, 2 acyl side, 3 side chain; on linkers, the order of the positions; unused ones are H or OH. Square brackets hold non-standard residues; d marks the D form. Peptide text beside a SMILES is read from it. * marks the point of attachment. Abu(ψCOCO) = CC[C@H](N[*:1])C(=O)C(=O)[*:2]; Pyrazinecarbonyl = O=C(c1cnccn1)*; Cha = N[C@@H](CC1CCCCC1)C(=O)O
# log scale: pIC50 equals minus log10 of the concentration in mol/L

Consider the reported pIC50 for these molecules:
Please give the measured pIC50 for this molecule: "CC[C@H](NC(=O)[C@H](CC1CCCCC1)NC(=O)[C@@H](NC(=O)[C@H](CC(C)C)NC(=O)c1cnccn1)[C@@H](C)CC)C(=O)C(=O)NC1CC1"
5.66

Entry under review: "CC[C@H](NC(=O)[C@H](CC1CCCCC1)NC(=O)[C@@H](NC(=O)[C@H](CC(C)C)NC(=O)c1cnccn1)[C@@H](C)CC)C(=O)C(=O)NCc1ccccc1" . Reported pIC50?
4.96

More entries:
Name the recorded pIC50 for CC[C@H](NC(=O)[C@H](CC1CCCCC1)NC(=O)[C@@H](NC(=O)[C@H](CC(C)C)NC(=O)c1cnccn1)[C@@H](C)CC)C(=O)C(=O)NCC(N)=O (Pyrazinecarbonyl-LI[Cha][Abu(ψCOCO)]G-NH2) .
5.37
